Source listed as ChEMBL document CHEMBL5055656.

- Experimental details: Cytotoxicity against human HaCaT cells assessed as cell growth inhibition measured after 72 hrs by MTT assay
- Assay type: cell-based
Readout: GI50 at 72 h (µM)

- Structure smiles: "COC(=O)c1[nH]c2ccc(F)cc2c1/C=C1\\NC(=S)NC1=O"
  Readout: "GI50 at 72 h"
  Unit annotation: "µM"
  Censoring qualifier: ">"
  Assay result: 100
- Structure smiles: "COC(=O)c1[nH]c2ccc(F)cc2c1C=O"
  Readout: "GI50 at 72 h"
  Unit annotation: "µM"
  Censoring qualifier: "="
  Assay result: 69.3
- Structure smiles: "COc1cccc2c1C(=O)c1c(O)c3c(c(O)c1C2=O)C[C@@](O)(C(=O)CO)C[C@@H]3O[C@H]1C[C@H](N)[C@H](O)[C@H](C)O1"
  Readout: "GI50 at 72 h"
  Unit annotation: "µM"
  Censoring qualifier: "="
  Assay result: 0.9
- Structure smiles: "COC(=O)c1[nH]c2ccc(F)cc2c1/C=C1\\SC(=O)NC1=S"
  Readout: "GI50 at 72 h"
  Unit annotation: "µM"
  Censoring qualifier: "="
  Assay result: 83.1
- Structure smiles: "COC(=O)c1[nH]c2ccc(F)cc2c1/C=C1\\SC(N)=NC1=O"
  Readout: "GI50 at 72 h"
  Unit annotation: "µM"
  Censoring qualifier: ">"
  Assay result: 100
- Structure smiles: "COC(=O)c1[nH]c2ccc(F)cc2c1/C=C1\\SC(=O)NC1=O"
  Readout: "GI50 at 72 h"
  Unit annotation: "µM"
  Censoring qualifier: ">"
  Assay result: 100

====

- Experimental details: Selectivity index, ratio of GI50 for human HaCaT mouse BALA/3T3 cells to GI50 for human A549 cells
- Type: toxicity
- Test conditions: read-out: RatioGI50

- Structure smiles: "COC(=O)c1[nH]c2ccc(F)cc2c1/C=C1\\SC(=S)NC1=O"
  selectivity ratio: 7.17
- Structure smiles: "COC(=O)c1[nH]c2ccc(F)cc2c1/C=C1\\SC(N)=NC1=O"
  selectivity ratio: 1.04
- Structure smiles: "COC(=O)c1[nH]c2ccc(F)cc2c1/C=C1\\SC(=O)NC1=S"
  selectivity ratio: 9.9
- Structure smiles: "COC(=O)c1[nH]c2ccc(F)cc2c1C=O"
  selectivity ratio: 1.49

====

- System: A549
- Experimental details: Cytotoxicity against human A549 cells assessed as cell growth inhibition measured after 72 hrs by MTT assay
- Type: functional
Readout: GI50 (µM)

- Molecule: "COC(=O)c1[nH]c2ccc(F)cc2c1/C=C1\\SC(=O)NC1=S"
  Unit annotation: "µM"
  Assay result: 8.7
- Molecule: "COC(=O)c1[nH]c2ccc(F)cc2c1/C=C1\\SC(=O)NC1=O"
  Unit annotation: "µM"
  Assay result: 25.4
- Molecule: "COc1cccc2c1C(=O)c1c(O)c3c(c(O)c1C2=O)C[C@@](O)(C(=O)CO)C[C@@H]3O[C@H]1C[C@H](N)[C@H](O)[C@H](C)O1 [DOXORUBICIN]"
  Unit annotation: "µM"
  Assay result: 0.6
- Molecule: "COC(=O)c1[nH]c2ccc(F)cc2c1C=O"
  Unit annotation: "µM"
  Assay result: 44.8
